# Assay Protocol: Excited state lifetime
# Assay type: physicochemical
# Conditions Used: air saturated acetonitrile
Experimental Endpoint: τ air, excited state lifetime (ns)
Answers are plain numbers, in ns.

Here are 3 compounds together with their reported answers.
[
  {
    "Smiles Data": "CN(C)c1ccc(/C=C/c2ccnc(-c3cc(/C=C/c4ccc(N(C)C)cc4)ccn3)c2)cc1.CN(C)c1ccc(/C=C/c2ccnc(-c3cc(/C=C/c4ccc(N(C)C)cc4)ccn3)c2)cc1.CN(C)c1ccc(/C=C/c2ccnc(-c3cc(/C=C/c4ccc(N(C)C)cc4)ccn3)c2)cc1.F[P-](F)(F)(F)(F)F.F[P-](F)(F)(F)(F)F.[Ru+2]",
    "Reported": 48
  },
  {
    "Smiles Data": "COc1ccc(/C=C/c2ccnc(-c3cc(/C=C/c4ccc(OC)cc4)ccn3)c2)cc1.COc1ccc(/C=C/c2ccnc(-c3cc(/C=C/c4ccc(OC)cc4)ccn3)c2)cc1.F[P-](F)(F)(F)(F)F.F[P-](F)(F)(F)(F)F.[Ru+2].c1ccc(-c2ccccn2)nc1",
    "Reported": 36
  },
  {
    "Smiles Data": "COc1ccc(/C=C/c2ccnc(-c3cc(/C=C/c4ccc(OC)cc4)ccn3)c2)cc1.COc1ccc(/C=C/c2ccnc(-c3cc(/C=C/c4ccc(OC)cc4)ccn3)c2)cc1.COc1ccc(/C=C/c2ccnc(-c3cc(/C=C/c4ccc(OC)cc4)ccn3)c2)cc1.F[P-](F)(F)(F)(F)F.F[P-](F)(F)(F)(F)F.[Ru+2]",
    "Reported": 76
  }
]

Please find the next compound below.
[ask] Look up τ air, excited state lifetime of `CN(C)c1ccc(/C=C/c2ccnc(-c3cc(/C=C/c4ccc(N(C)C)cc4)ccn3)c2)cc1.CN(C)c1ccc(/C=C/c2ccnc(-c3cc(/C=C/c4ccc(N(C)C)cc4)ccn3)c2)cc1.F[P-](F)(F)(F)(F)F.F[P-](F)(F)(F)(F)F.[Ru+2].c1ccc(-c2ccccn2)nc1` and report it.
[reply] 69
